Origin of values: ChEMBL document CHEMBL1141001

tested on: A549; test: Cytotoxicity against human A549 cells by MTT assay; assay type: functional, cell-based
value.kind: pIC50
Reminder that pIC50 is minus the log10 of a molar concentration.

Field: example entries. Status: answers known.
O=C(/C=C/c1ccc(O)c(O)c1)OCc1ccccc1 [BENZYL CAFFEATE] :: 4.56
O=C(/C=C/c1ccc(O)c(O)c1)OCCc1ccccc1 [CAFFEIC ACID PHENETHYL ESTER] :: 4.08
O=C(/C=C/c1ccc(O)c(O)c1)Oc1ccc2ccccc2c1 :: 4.30
COc1c(O)ccc(/C=C/C(=O)OC2CC3CCC2(C)C3(C)C)c1[N+](=O)[O-] (configuration not stated) :: 4.68
O=C(/C=C/c1ccc(O)c(O)c1)Oc1ccccc1 :: 4.12

For the molecule shown here, CC1(C)C2CCC1(C)C(OC(=O)/C=C/c1ccc(O)c(O)c1[N+](=O)[O-])C2 (configuration not stated) , give the reported pIC50.
4.28

pIC50 lookup needed for CC1(C)C2CCC1(C)C(OC(=O)/C=C/c1ccc(O)c(O)c1)C2 (configuration not stated) , thanks.
4.71

GET /values?readout=pIC50&item= O=C(/C=C/c1cc(O)c(O)c([N+](=O)[O-])c1)OCCc1ccccc1
4.94

Requested field: pIC50. Item: O=C(/C=C/c1ccc(O)c(O)c1)OC1CCCCC1
4.05

Given the entry O=C(/C=C/c1ccc(O)c(O)c1[N+](=O)[O-])OCCc1ccccc1 , report its measured pIC50.
5.06

---

Below, each of the compounds is paired with its reported pIC50 value.
assay: Cytotoxicity against human BCG823 cells by MTT assay; type: functional, cell-based
Scale note: pIC50 = -log10(concentration in M).

Past entries and their recorded results:
CC1(C)C2CCC1(C)C(OC(=O)/C=C/c1ccc(O)c(O)c1[N+](=O)[O-])C2 (configuration not stated) :: 3.93
O=C(/C=C/c1ccc(O)c(O)c1)OCCc1ccccc1 [CAFFEIC ACID PHENETHYL ESTER] :: 4.35
O=C(/C=C/c1ccc(O)c(O)c1)OCc1ccccc1 [BENZYL CAFFEATE] :: 4.32

Quick check: pIC50 of COc1c(O)ccc(/C=C/C(=O)OC2CC3CCC2(C)C3(C)C)c1[N+](=O)[O-] (configuration not stated) ?
4.49

Recorded pIC50 for O=C(/C=C/c1ccc(O)c(O)c1)Oc1ccccc1 , please?
4.25

What pIC50 value was documented for this compound, O=C(/C=C/c1ccc(O)c(O)c1[N+](=O)[O-])OCCc1ccccc1 ?
4.56

Request the reported pIC50 associated with CC1(C)C2CCC1(C)C(OC(=O)/C=C/c1ccc(O)c(O)c1)C2 (configuration not stated)
4.00

Consider the compound shown here: O=C(/C=C/c1cc(O)c(O)c([N+](=O)[O-])c1)OCCc1ccccc1 What is its recorded pIC50?
4.64

Tell me the measured pIC50 of O=C(/C=C/c1ccc(O)c(O)c1)Oc1ccc2ccccc2c1 , please.
4.22

Quick one: pIC50 of O=C(/C=C/c1ccc(O)c(O)c1)OC1CCCCC1 ?
4.01
